From: patent US7884127B2

Each record here notes measured melting point.

// solved cases for melting point follow
CN1CC[C@@H](c2c(O)cc(O)c3c(=O)cc(-c4ccccc4F)oc23)[C@@H]1CO [Example 21]: 206 to 208 °C
CN1CC[C@@H](c2c(O)cc(O)c3c(=O)cc(-c4ccccc4Cl)oc23)[C@@H]1Cn1ccnc1 (racemic) [Example 113]: 249 to 250 °C
Cc1ccc(Cl)c(-c2cc(=O)c3c(O)cc(O)c([C@@H]4CCN(C)[C@H]4CO)c3o2)c1 [Example 38]: 206 to 208 °C

Tell me the measured melting point of CN1CC[C@@H](c2c(O)cc(O)c3c(=O)cc(-c4cccc(F)c4Br)oc23)[C@@H]1CO [Example 136] , please. 237 to 239 °C

What melting point value was documented for this compound, Cc1cc(C#N)ccc1-c1cc(=O)c2c(O)cc(O)c([C@@H]3CCN(C)[C@H]3CO)c2o1 [Example 60] ? 145 to 147 °C

Query: melting point; subject: CN1CC[C@@H](c2c(O)cc(O)c3c(=O)cc(-c4ccc(O)cc4Cl)oc23)[C@@H]1CO (racemic) [Example 104] > 300 °C

What measured melting point goes with CN1CC[C@@H](c2c(O)cc(O)c3c(=O)cc(-c4ccccc4Br)oc23)[C@@H]1CO [Example 17] ? 235 to 237 °C

* * *

parameter.measured: melting point

Looking for the measured melting point of CN1CC[C@@H](c2c(O)cc(O)c3c(=O)cc(-c4c(F)cccc4F)oc23)[C@@H]1CO (single isomer, unassigned) , can you help? 242 to 244 °C

Need melting point of CN1CC[C@@H](c2c(O)cc(O)c3c(=O)cc(-c4ccccc4Cl)oc23)[C@@H]1CN (racemic) , thanks. 218 to 219 °C

GET /values?readout=melting point&item= CN1CC[C@@H](c2c(O)cc(O)c3c(=O)cc(-c4ccc(C#N)cc4Cl)oc23)[C@@H]1CO 237 to 239 °C

Could you share which melting point value was measured for CCCN1CC[C@@H](c2c(O)cc(O)c3c(=O)cc(-c4ccccc4Cl)oc23)[C@@H]1CO (racemic) ? 94 to 96 °C

Look up melting point: CN1CC[C@@H](c2c(O)cc(O)c3c(=O)cc(-c4ccccc4Cl)oc23)[C@@H]1CC#N (racemic) 107 to 108 °C

Bench note: what melting point did CN1CC[C@@H](c2c(O)cc(O)c3c(=O)cc(-c4ccc([N+](=O)[O-])cc4)oc23)[C@@H]1CO show? 275 to 277 °C

Which melting point value belongs to CN1CC[C@@H](c2c(O)cc(O)c3c(=O)cc(-c4cc(Cl)ccc4Br)oc23)[C@@H]1CO ? 233 to 235 °C

* * *

// reported melting point per item

CN1CC[C@@H](c2c(O)cc(O)c3c(=O)cc(-c4cc(F)ccc4Cl)oc23)[C@@H]1CO.CS(=O)(=O)O (racemic): 192 to 193 °C

Fill blank: measured melting point of the molecule COc1cc(OC)c2c(=O)cc(-c3ccc(C#N)cc3)oc2c1[C@@H]1CCN(C)[C@H]1CO (racemic) is ____. 214 to 216 °C

Data request, read-out melting point, for CN1CC[C@@H](c2c(O)cc(O)c3c(=O)cc(-c4ccccc4Cl)oc23)[C@@H]1C(=O)O (racemic) 295 to 297 °C

* * *

Catalogue of compounds with associated melting point

CN1CC[C@@H](c2c(O)cc(O)c3c(=O)cc(-c4ccccc4)oc23)[C@@H]1CO: 212 to 215 °C
CN1CC[C@@H](c2c(O)cc(O)c3c(=O)cc(-c4ccc(C(F)(F)F)cc4)oc23)[C@@H]1CO (racemic) [Example 63]: 238 °C
COc1cc(OC)c2c(=O)cc(-c3ccc(C(F)(F)F)cc3)oc2c1[C@@H]1CCN(C)[C@H]1CO (racemic): 114 to 115 °C
CN1CC[C@@H](c2c(O)cc(O)c3c(=O)cc(-c4cccc(F)c4)oc23)[C@@H]1CO: 218 to 220 °C

Turning now to a further record.
Need melting point of CN1CC[C@@H](c2c(O)cc(O)c3c(=O)cc(-c4cccs4)oc23)[C@@H]1CO , thanks. 218 to 220 °C
